Molecular target: TNFα (Homo sapiens)
Experiment: TNF induced HEK-Blue assay (NF-kB-driven secreted alkaline phosphatase reporter)
Type: cell-based
Conditions: TNFα 0.5 ng/mL, HEK-Blue-CD40L cells, 18 h; read-out: TNF induced HEK-Blue assay IC50 value
pIC50: −log10 of the molar value.
Below, each entry is listed alongside its reported pIC50.

Some entries whose results are on file:
{"Compound": "C[C@@H](Nc1c(Cl)cnc2ccccc12)c1cc(-c2cc3ccccc3[nH]2)ccc1F", "Measured Endpoint": "pIC50", "Assay Value": "5.00 to 6.00"}
{"Compound": "CC(Nc1c(Cl)cnc2cc(F)c(-c3ccc(C(O)C4CC4)cc3)cc12)c1ccccc1F (centres unmarked) [Example 263]", "Measured Endpoint": "pIC50", "Assay Value": "5.00 to 6.00"}
{"Compound": "COc1ccc(F)c(CNc2c(Cl)cnc3ccccc23)c1", "Measured Endpoint": "pIC50", "Assay Value": "5.00 to 6.00"}
{"Compound": "C=CC(=O)N(C)c1ncc(-c2ccc3ncc(Cl)c(N[C@H](C)c4ccccc4F)c3c2)cn1", "Measured Endpoint": "pIC50", "Assay Value": "> 6.00"}
{"Compound": "C[C@@H](Nc1c(Cl)cnc2ccccc12)c1cc(-c2cccnc2)ccc1F", "Measured Endpoint": "pIC50", "Assay Value": "> 6.00"}
{"Compound": "CC(Nc1c(Cl)cnc2ccc(-c3ccc(C(C)(C)O)cc3)cc12)c1cocn1 (racemic)", "Measured Endpoint": "pIC50", "Assay Value": "4.60 to 5.00"}
{"Compound": "C[C@@H](Nc1c(Cl)cnc2ccccc12)c1cc(-c2cccc(C#N)c2)ccc1F", "Measured Endpoint": "pIC50", "Assay Value": "> 6.00"}

### Prompt Quote pIC50 reported for CCn1cc(-c2ccc(F)c([C@@H](C)Nc3c(Cl)cnc4ccccc34)c2)cn1 please.
### Response > 6.00

###

Target: TNFα (Homo sapiens, UniProt P01375)
Sequence (P01375 77-233 limits assumed): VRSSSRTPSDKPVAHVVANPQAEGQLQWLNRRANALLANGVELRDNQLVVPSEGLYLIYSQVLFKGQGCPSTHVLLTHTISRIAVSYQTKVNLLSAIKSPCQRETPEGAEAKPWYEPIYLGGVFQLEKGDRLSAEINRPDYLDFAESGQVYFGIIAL
Experiment: TNF induced HEK-Blue assay (NF-kB-driven secreted alkaline phosphatase reporter)
Format: cell-based
Settings: TNF induced HEK-Blue assay IC50 value, TNFα 0.5 ng/mL, HEK-Blue-CD40L cells, 18 h
pIC50: −log10 of the molar value.
Below, each entry is listed alongside its reported pIC50.

{"Molecule": "CC(Nc1c(Cl)cnc2ccc(-c3cnc(C(C)(C)O)nc3)cc12)c1cccc(F)c1 (racemic) [Example 155]", "pIC50": "5.00 to 6.00"}
{"Molecule": "CC(Nc1c(Cl)cnc2ccc(-c3cnc(C(C)(C)O)nc3)c(Cl)c12)c1ccccc1F (racemic) [Example 296]", "pIC50": "> 6.00"}
{"Molecule": "CC(Nc1c(Cl)cnc2ccc(-c3cnc(C(C)(C)O)nc3)cc12)c1ccc(F)cc1 (racemic) [Example 157]", "pIC50": "4.60 to 5.00"}

Lab note: next molecule to report on.
### Prompt Quote pIC50 reported for CC(Nc1c(Cl)cnc2cc(F)c(-c3cnc(C(C)(C)O)nc3)cc12)c1ccccc1F (stereo not shown) [Example 249] please.
### Response 5.00 to 6.00

###

Molecular target: TNFα (Homo sapiens, UniProt P01375)
Test: TNF induced HEK-Blue assay (NF-kB-driven secreted alkaline phosphatase reporter)
Format: cell-based
Conditions: TNFα 0.5 ng/mL, HEK-Blue-CD40L cells, 18 h; read-out: TNF induced HEK-Blue assay IC50 value
Description: TNF or CD40L-Induced HEK-Blue Assay Test compounds serially diluted in DMSO were plated in an assay plate (LABCYTE, Cat. # LP-0200) at final concentrations ranging from 0.004 μM to 25 μM. […] Secreted alkaline phosphatase expression was measured using QUANTI-Blue™ (INVIVOGEN, Cat. Code rep-qb1) according to manufacturer's specifications and the assay plate was read on a PerkinElmer Envision at 620 nm. […]
pIC50: −log10 of the molar value.
Measured Endpoint: pIC50

Some entries whose results are on file:
{"Compound": "Cc1nc2cc(F)c(-c3cnc(C(C)(C)O)nc3)cc2c(N[C@H](C)c2cc(C(N)=O)ccc2F)c1Cl", "Measured Endpoint": "pIC50", "Assay Value": "> 6.00"}
{"Compound": "CNc1ncc(-c2cc(Cl)c3ncc(Cl)c(NC(C)c4ccccc4F)c3c2)cn1 (racemic)", "Measured Endpoint": "pIC50", "Assay Value": "4.60 to 5.00"}

### Prompt Quote pIC50 reported for Cc1nc2cc(F)c(-c3cnc(C(C)(C)O)nc3)nc2c(N[C@H](C)c2cc(C(=O)O)ccc2F)c1Cl please.
### Response 4.60 to 5.00

### Prompt Quote pIC50 reported for Cc1nc2ccc(-c3ccc(C(C)(C)O)cc3)cc2c(N[C@H](C)c2ccccc2F)c1Cl please.
### Response > 6.00
